The compounds listed here are annotated with their inhibition.
target: CDK8/Cyclin C (Homo sapiens) (UniProt P49336+P24863); experiment: Inhibition of Alexa647 tracer binding to full length recombinant human His-tagged CDK8/Cyclin C expressed in baculovirus expression system at 1 uM preincubated for 20 mins followed by tracer addition measured after 60 mins by TR-FRET based Lanthascreen assay relative to control
Entry rule: numbers only, all in %.

Recorded results for 4 compounds are shown here.
1) Cc1ccc(Nc2cc(Nc3ccc(NC(=O)Nc4cccc(F)c4)cc3)nc(C)n2)cc1
5
2) O=C(CSc1ccc(N2CCCC(C(=O)NC3CC3)C2)nn1)Nc1cccc(C(F)(F)F)c1 (stereo not given)
5
3) COc1ccc(C(=O)N2CCCN(c3ccc(NC(=O)Nc4cccc(C(F)(F)F)c4)cn3)CC2)cc1
82
4) O=C(Nc1cccc(C(F)(F)F)c1)Nc1nnc(SCc2nc3ccccc3[nH]c2=O)s1
100

The record that follows has no inhibition shown yet.
Identify measured inhibition associated with NC(=O)C1CC(=O)N(c2ccc(OCC(=O)Nc3cccc(C(F)(F)F)c3)cc2)C1 (stereo not given)
12

====

target: CDK8/Cyclin C (Homo sapiens) (UniProt P49336+P24863); experiment: Inhibition of Alexa647 tracer binding to full length recombinant human His-tagged CDK8/Cyclin C expressed in baculovirus expression system at 2.5 uM preincubated for 20 mins followed by tracer addition measured after 60 mins by TR-FRET based Lanthascreen assay relative to control
readout_type: inhibition (%)
Entry rule: numbers only, all in %.

1. Cc1c(C(=O)Nc2ccc(-n3cnnn3)cc2)nnn1-c1ccc2noc(-c3ccccc3)c2c1
-2
2. CC(=O)Nc1ccc(NC(=O)c2nnn(-c3ccc4noc(-c5ccc(Cl)cc5)c4c3)c2C)cc1
4
3. Cc1c(C(=O)Nc2cccc(C(F)(F)F)c2)nnn1-c1ccc2noc(-c3ccc(Cl)cc3)c2c1
19
4. CC(=O)Nc1ccc(NC(=O)c2ccc3noc(-c4ccc(Cl)cc4)c3c2)cc1
43

The record that follows has no inhibition shown yet.
Identify measured inhibition associated with CC(=O)Nc1ccc(NC(=O)c2nnn(-c3ccc4noc(-c5ccccc5)c4c3)c2C)cc1
59

====

target: CDK8/Cyclin C (Homo sapiens) (UniProt P49336+P24863); experiment: Inhibition of Alexa647 tracer binding to full length recombinant human His-tagged CDK8/Cyclin C expressed in baculovirus expression system at 1 uM preincubated for 20 mins followed by tracer addition measured after 60 mins by TR-FRET based Lanthascreen assay relative to control
The compounds listed here are annotated with their inhibition.
Entry rule: numbers only, all in %.

1. CCc1nnc(NS(=O)(=O)c2ccc(NC(=O)Nc3ccc(Cl)c(Cl)c3)cc2)s1
59
2. CC(=O)Nc1ccc(NC(=O)Cc2csc(NC(=O)Nc3cccc(Cl)c3)n2)cc1
13
3. C=CCNC(=O)C1CCN(C(=O)Nc2ccc(NC(=O)Nc3cccc(F)c3)cc2)CC1
8
4. Cc1cc2nc(CSc3ccc(NC(=O)Nc4cccc(C(F)(F)F)c4)cc3)cc(=O)n2o1
59
5. O=C(Nc1cccc(Cl)c1)Nc1nnc(CC(=O)N2CCCC2)s1
85

Specify the recorded inhibition for CCNC(=O)c1cn(-c2ccc(SCC(=O)Nc3cccc(C(F)(F)F)c3)nn2)cn1 , system: CDK8/Cyclin C (Homo sapiens) (UniProt P49336+P24863).
16

Specify the recorded inhibition for COc1ccc(C(=O)NCc2nnc(SCC(=O)Nc3cccc(C(F)(F)F)c3)o2)cc1OC , system: CDK8/Cyclin C (Homo sapiens) (UniProt P49336+P24863).
4

Specify the recorded inhibition for C=CCNC(=O)C1CC(=O)N(c2ccc(OCC(=O)Nc3cccc(C(F)(F)F)c3)cc2)C1 (centres undefined) , system: CDK8/Cyclin C (Homo sapiens) (UniProt P49336+P24863).
3

Specify the recorded inhibition for Cc1nc(Nc2ccc(NC(=O)Nc3cccc(Cl)c3)cc2)cc(N2CCCCC2)n1 , system: CDK8/Cyclin C (Homo sapiens) (UniProt P49336+P24863).
14

Sourced from ChEMBL document CHEMBL4004862
